- RUN_DESCRIPTION: Aqueous Solubility in pION's buffer
- Type: physicochemical
- CONDITION_CONTEXT: pH 7.4, aqueous buffer, read-out: Aqueous Solubility in pION's buffer pH 7.4
Would you mind telling me the reported solubility of each entry?
// units = µg/mL; emit number, no label

Given O=C(/C=C/c1nc2cc(Cl)ccc2[nH]1)c1c(-c2ccccc2)c2cc(Cl)ccc2[nH]c1=O [Compound 62] , state its recorded solubility.
0.12

Consider the compound O=C(/C=C/c1ccccc1)c1c(C2CCCCC2)c2cc(Cl)ccc2[nH]c1=O [Compound 12] and give its measured solubility.
1.2

Item under review: O=C(/C=C/c1cncc(F)c1)c1c(-c2ccccc2)c2cc(Cl)ccc2[nH]c1=O [Compound 38] . Reported solubility?
5.5

Fill blank: measured solubility of the compound O=C(/C=C/c1nc2ccccc2[nH]1)c1c(O)nc2ccc(Cl)cc2c1-c1ccccc1 [BI-69A11, reference compound] is ____.
0.1

* * *

- SUBJECT_OF_TEST: EmCV Cap-independent translation
- RUN_DESCRIPTION: In vitro translation assay, FF-EmCV-Ren construct, cap-independent (Ren luciferase)
ENDPOINT_NAME: IC50

Could you tell me which IC50 is on file for COc1ccc(-c2c(C(=O)/C=C/c3cncc(F)c3)c(=O)[nH]c3ccc(Cl)cc23)cc1 [Compound 79] ?
2 to 10 µM

Could you tell me which IC50 is on file for CN(C)c1ccc(/C=C/C(=O)c2c(-c3ccccc3)c3cc([N+](=O)[O-])ccc3[nH]c2=O)cc1 [Compound 17] ?
> 20 µM

# lookup: IC50 of CCOC(=O)c1cncc(-c2c(C(=O)/C=C/c3ccccn3)c(=O)[nH]c3ccc(Cl)cc23)c1 [Compound 107]
10 to 20 µM

// returns reported IC50 for input O=C(/C=C/c1nc2ccccc2[nH]1)c1c(-c2ccccc2)c2cc(C(F)(F)F)ccc2[nH]c1=O [Compound 19]
2 to 10 µM

* * *

- SUBJECT_OF_TEST: EmCV Cap-dependent translation
- RUN_DESCRIPTION: In vitro translation assay, FF-EmCV-Ren construct, cap-dependent (FF luciferase)
pIC50: −log10 of the molar value.
I'd be grateful if you could share measured pIC50 for these entries.

Which pIC50 reading was recorded for the compound O=C(/C=C/c1nc2ccccc2[nH]1)c1c(-c2ccc(C(F)(F)F)cc2)c2cc(Cl)ccc2[nH]c1=O [Compound 1] ?
5.00 to 5.70

Sample O=C(/C=C/c1nc2ccccc2[nH]1)c1c(-c2ccccc2)c2cnccc2[nH]c1=O [Compound 24] — what was its pIC50?
5.00 to 5.70

Please give the measured pIC50 for this compound: Cc1ccc2[nH]c(/C=C/C(=O)c3c(-c4ccccc4)c4cc(Cl)cnc4[nH]c3=O)nc2c1 [Compound 114]
5.00 to 5.70

# get_value(readout='pIC50', item= O=C(/C=C/c1ccccn1)c1c(-c2cncc(F)c2)c2cc(Cl)ccc2[nH]c1=O [Compound 100] )
4.70 to 5.00

What does the record list as pIC50 for CN(C)c1ccc(-c2c(C(=O)/C=C/c3ccccn3)c(=O)[nH]c3ccc(Cl)cc23)cc1 [Compound 108] ?
5.00 to 5.70

Entry under review: O=C(/C=C/c1ccncc1)c1c(-c2ccccc2)c2ccncc2[nH]c1=O [Compound 23] . Reported pIC50?
< 4.70

Quick one: pIC50 for O=C(/C=C/c1ccc(F)c(F)c1)c1c(-c2ccccc2)c2cc(Cl)ccc2[nH]c1=O [Compound 40] ?
5.00 to 5.70

Which pIC50 is reported for this compound? O=C(/C=C/c1nc2ccccc2[nH]1)c1c(-c2ccccc2)c2cccnc2[nH]c1=O [Compound 25]
4.70 to 5.00

Name the reported pIC50 value associated with the compound Cn1c(/C=C/C(=O)c2c(-c3ccccc3)c3cc(Cl)ccc3[nH]c2=O)cc2ccccc21 [Compound 29]
< 4.70

Fill in: pIC50 of Cc1cncc(-c2c(C(=O)/C=C/c3ccccn3)c(=O)[nH]c3ccc(Cl)cc23)c1 [Compound 96] is ___
4.70 to 5.00

Fill in the blank: the reported pIC50 of O=C(/C=C/c1cccnc1)c1c(-c2ccccc2)c2cc(Cl)ccc2[nH]c1=O [Compound 32] is ____.
5.00 to 5.70

What value of measured pIC50 is listed for O=C(/C=C/c1cncc(F)c1)c1c(-c2cncc(Cl)c2)c2cc(Cl)ccc2[nH]c1=O [Compound 101] ?
5.00 to 5.70

Quick one: pIC50 of O=C(/C=C/c1cncc(F)c1)c1c(-c2ccccc2)c2cc(Cl)ccc2[nH]c1=O [Compound 38] ?
5.00 to 5.70

Which pIC50 value is on record for COc1ccc(Cn2c(/C=C/C(=O)c3c(-c4ccccc4)c4cc(Cl)ccc4[nH]c3=O)nc3cc(Cl)ccc32)cc1 [Compound 54] ?
5.00 to 5.70

Entry O=C(/C=C/c1ccc(Cl)s1)c1c(-c2ccccc2)c2cc(Cl)ccc2[nH]c1=O [Compound 113] has what pIC50?
5.00 to 5.70

Tell me the measured pIC50 of O=C(/C=C/c1ccccc1)c1c(-c2cccnc2)c2cc(Cl)ccc2[nH]c1=O [Compound 7] , please.
5.00 to 5.70

Values from patent US10577349B2
